Recorded values, source patent US9029337B2.

# Tested on: human Factor 7 mRNA
# test.protocol: Antisense inhibition of human Factor 7 with short (14-mer) oligonucleotides in HepB3 cells, electroporation 1,000 nM
# Format: cell-based
# experimental.conditions: electroporation, 1,000 nM antisense oligonucleotide, approximately 24 hours, Factor 7 mRNA relative to untreated control cells
Strand notation (5' to 3'): a small letter for the sugar, then the base; units joined by * are phosphorothioate-linked, units joined directly phosphodiester-linked; [ ] holds rarer units or linkages, { } end groups; capitals alone tell only the bases. e = 2'-O-(2-methoxyethyl) (MOE); [5mC] = 5-methylcytosine; d = 2'-deoxy (DNA)
parameter: % Inhibition (%)
Provide the reading as a plain figure in %.

Exam item: Tell me measured % Inhibition for 435695 (antisense eG*eA*d[5mC]*dT*dG*d[5mC]*dT*dG*d[5mC]*dA*dG*dG*e[5mC]*eA) [compound 435695] please.
Marked response: 48

Exam item: Tell me measured % Inhibition for 435725 (antisense eG*e[5mC]*dA*dG*d[5mC]*d[5mC]*dT*dG*dA*dG*dG*d[5mC]*e[5mC]*eA) [compound 435725] please.
Marked response: 79

Exam item: Tell me measured % Inhibition for 435796 (antisense eT*eG*dA*d[5mC]*d[5mC]*dA*d[5mC]*dA*d[5mC]*dA*dT*dT*eT*e[5mC]) [compound 435796] please.
Marked response: 30

Exam item: Tell me measured % Inhibition for 435742 (antisense eA*eT*dG*dT*dG*dA*dG*dG*dG*dT*dT*d[5mC]*eA*eT) [compound 435742] please.
Marked response: 11

Next:
Exam item: Tell me measured % Inhibition for 435635 (antisense e[5mC]*eA*dT*dG*dA*dT*dG*dA*dA*dA*dT*d[5mC]*eT*e[5mC]) [compound 435635] please.
Marked response: 0

Exam item: Tell me measured % Inhibition for 435754 (antisense eT*e[5mC]*dA*dG*d[5mC]*dA*dA*dG*dA*dG*dT*dG*e[5mC]*eA) [compound 435754] please.
Marked response: 16

Exam item: Tell me measured % Inhibition for 435771 (antisense eG*eT*d[5mC]*dA*dT*dA*dA*dG*dG*d[5mC]*d[5mC]*dA*eT*eG) [compound 435771] please.
Marked response: 13

Exam item: Tell me measured % Inhibition for 435665 (antisense eA*eG*dG*dT*dA*dT*dT*dT*dT*dT*d[5mC]*d[5mC]*eA*e[5mC]) [compound 435665] please.
Marked response: 0

----------
# Test system: human Factor 7 mRNA
# test.protocol: Dose-dependent antisense inhibition of human Factor 7 in HepB3 cells, lipofectin
# Format: cell-based
# experimental.conditions: HepB3 cells, approx. 16 hours (Table 14)
Strand notation (5' to 3'): a small letter for the sugar, then the base; units joined by * are phosphorothioate-linked, units joined directly phosphodiester-linked; [ ] holds rarer units or linkages, { } end groups; capitals alone tell only the bases. e = 2'-O-(2-methoxyethyl) (MOE); [5mC] = 5-methylcytosine; d = 2'-deoxy (DNA)
Consider the following substances and their measured percent inhibition of Factor 7 mRNA, relative to untreated control cells readings.
Provide the reading as a plain figure in %.

Exam item: Tell me measured percent inhibition of Factor 7 mRNA, relative to untreated control cells for 422252 (antisense e[5mC]*eG*d[5mC]*d[5mC]*dG*dG*d[5mC]*dT*d[5mC]*dT*dG*d[5mC]*dT*d[5mC]*dA*eT*e[5mC]*e[5mC]*e[5mC]*e[5mC]) [compound 422252] please.
Marked response: 17

Exam item: Tell me measured percent inhibition of Factor 7 mRNA, relative to untreated control cells for 422087 (antisense e[5mC]*eA*eT*eG*e[5mC]*dA*dT*dG*dG*dT*dG*dA*dT*dG*d[5mC]*eT*eT*e[5mC]*eT*eG) [compound 422087] please.
Marked response: 24

Exam item: Tell me measured percent inhibition of Factor 7 mRNA, relative to untreated control cells for 422294 (antisense eG*eA*dG*dT*dT*d[5mC]*dT*dG*d[5mC]*dA*dG*dG*dA*dG*d[5mC]*eG*eG*e[5mC]*e[5mC]*eT) [compound 422294] please.
Marked response: 21

Next, consider the following substance.
Exam item: Tell me measured percent inhibition of Factor 7 mRNA, relative to untreated control cells for 422217 (antisense eG*eA*eG*dT*dT*d[5mC]*dT*dG*d[5mC]*dA*dG*dG*dA*dG*d[5mC]*dG*dG*e[5mC]*e[5mC]*eT) [compound 422217] please.
Marked response: 18
